- Target Of Assay: recombinant form of Glutaminase 1 (GAC) (Homo sapiens, UniProt O94925)
- Assay Summary: Recombinant Enzyme Assay (no preincubation);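 also: GDH-coupled GAC activity read as absorbance at 340 nm in kinetic mode over 15 min at 20 °C, slopes compared with a DMSO-only control, lower slope means inhibition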
- Format: biochemical
- Protocol Conditions: read-out: GAC Delta N2 IC50 no preinc
Endpoint: pIC50
One number for each entry, as −log10 of the molar value.

Study these solved cases before continuing.
O=C(Cc1ccccc1)Nc1nnc(CCCCc2nnc(NC(=O)Cc3ccccn3)s2)s1 [Compound 310] ... 7.08
CCOC(=O)NCc1cccc(CC(=O)Nc2nnc(CCCCc3ccc(NC(=O)Cc4ccccc4)nn3)s2)c1 [Compound 382] ... 7.00
O=C(Cc1ccccc1)Nc1ccc(CCCCc2nnc(NC(=O)C(CO)c3ccccc3)s2)nn1 (stereo not shown) [Compound 314] ... 6.85

Please give the measured pIC50 for this compound: CC(C)(C)OC(=O)NCc1cccc(CC(=O)Nc2nnc(CCCCc3nnc(NC(=O)Cc4cccc(CNC(=O)OC(C)(C)C)c4)s3)s2)c1 [Compound 324] 5.34

###

- Target Of Assay: recombinant form of Glutaminase 1 (GAC) (Homo sapiens)
- Assay Summary: Recombinant Enzyme Assay (no preincubation)
- Assay type: biochemical
- Protocol Conditions: read-out: GAC Delta N2 IC50 no preinc
Endpoint: IC50 (nM)
One number for each entry, in nM.

O=C(Nc1nnc(CCSCCc2nnc(NC(=O)C(CO)c3ccccc3)s2)s1)C(CO)c1ccccc1 (stereo not shown) [Compound 24] ... 510
O=C(Cc1ccccc1)Nc1ccc(CCCCc2nnc(NC(=O)Cc3cccc(-n4ccnc4)c3)s2)nn1 [Compound 379] ... 97
COc1cccc(CC(=O)Nc2nnc(CCCCc3ccc(NC(=O)Cc4ccccc4)nn3)s2)c1 [Compound 353] ... 49

From here, focus on the item given below.
Tell me the measured IC50 of O=C(Cc1ccccc1)Nc1ccc(CCCCc2nnc(NC(=O)Cc3cccc(OCc4ccccc4)c3)s2)nn1 [Compound 338] , please. 150

###

- Target Of Assay: recombinant form of Glutaminase 1 (GAC) (Homo sapiens)
- Sequence (O94925 137-598 isoform O94925-3 limits assumed): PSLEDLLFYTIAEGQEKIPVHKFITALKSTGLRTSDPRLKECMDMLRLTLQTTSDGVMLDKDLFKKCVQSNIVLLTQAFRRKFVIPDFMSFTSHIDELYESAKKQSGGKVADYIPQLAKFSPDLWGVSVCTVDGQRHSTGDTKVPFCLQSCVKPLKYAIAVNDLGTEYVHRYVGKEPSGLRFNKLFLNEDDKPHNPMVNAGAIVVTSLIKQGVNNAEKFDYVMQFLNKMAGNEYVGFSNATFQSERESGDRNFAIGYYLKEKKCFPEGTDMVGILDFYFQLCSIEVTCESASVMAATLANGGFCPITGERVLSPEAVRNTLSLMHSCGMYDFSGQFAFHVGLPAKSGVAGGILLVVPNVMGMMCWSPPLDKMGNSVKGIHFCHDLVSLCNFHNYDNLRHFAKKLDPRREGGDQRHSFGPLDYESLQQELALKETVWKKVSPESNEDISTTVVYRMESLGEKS
- Assay Summary: Recombinant Enzyme Assay (no preincubation)
- Assay type: biochemical
- Protocol Conditions: read-out: GAC Delta N2 IC50 no preinc
For each record, write down the corresponding log10 of IC50.
Use the decimal logarithm of IC50 (nM).

Before answering, review these 3 worked examples.
O=C(Cc1cccc2[nH]ncc12)Nc1nnc(CCCCc2nnc(NC(=O)Cc3cccc4[nH]ncc34)s2)s1 [Compound 640] ... 2.08
O=C(Cc1ccccc1)Nc1nnc(CCCCc2ccc(NC(=O)C(O)c3cccc(Cl)c3)nn2)s1 (stereo not shown) [Compound 365] ... 1.96
C=C(C(=O)Nc1nnc(CCCCc2nnc(NC(=O)C(OCC(=O)CCN3CCOCC3)c3ccccc3)s2)s1)c1ccccc1 (stereo not shown) [Compound 281] ... 2.87

Your task in this section: give log10 of IC50 for each listed record.
1. O=C(Cc1ccccc1)Nc1ccc(CCCCc2nnc(NC(=O)C(O)c3cccc(Cl)c3)s2)nn1 (stereo not shown) [Compound 318]
2. Nc1ccc(CCCCc2nnc(NC(=O)Cc3cccc(OCc4ccccc4)c3)s2)nn1 [Compound 385]
3. Nc1cccc(CC(=O)Nc2nnc(CCSCCc3nnc(NC(=O)Cc4cccc(N)c4)s3)s2)c1 [Compound 99]
4. O=C(Nc1nnc(CCSCc2nnc(NC(=O)C(CO)c3ccccc3)s2)s1)C(CO)c1ccccc1 (stereo not shown) [Compound 239]

2.26
2.41
3.43
2.48
